These molecules were tested on human PLK1 kinase domain (Homo sapiens, UniProt P53350); IC50 is the recorded read-out.
Sequence (P53350 53-305 limits assumed): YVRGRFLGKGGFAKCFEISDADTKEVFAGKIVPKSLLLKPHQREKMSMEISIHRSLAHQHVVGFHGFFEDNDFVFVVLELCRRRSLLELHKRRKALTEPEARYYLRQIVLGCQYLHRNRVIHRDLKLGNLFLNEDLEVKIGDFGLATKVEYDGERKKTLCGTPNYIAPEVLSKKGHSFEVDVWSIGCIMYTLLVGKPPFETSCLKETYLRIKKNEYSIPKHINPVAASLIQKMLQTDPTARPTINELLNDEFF
Answers are plain numbers, in µM.

{"columns": ["SUBSTANCE_SMILES", "IC50 [µM]"],
 "data": [
  ["Cc1noc(NS(=O)(=O)c2ccc(Nc3cc(-c4cccc5ccccc45)ncn3)cc2)c1C", 13.8]
]}

Field: IC50. Fill in for each record below.
1. CCOc1ccccc1-c1cc(Nc2ccc(S(=O)(=O)Nc3onc(C)c3C)cc2)ncn1
2. COc1ccccc1-c1cc(Nc2ccc(S(=O)(=O)Nc3nnc(C)s3)cc2)ncn1
3. Cc1noc(NS(=O)(=O)c2ccc(Nc3cc(-c4ccccc4OC(C)C)ncn3)cc2)c1C

A.
1: 1.25; 2: 0.917; 3: 1.82

The reported measurements were obtained from patent US20150368209A1.
